Some binders, each annotated with its measured IC50, cell viability, MCF7/PRLR cells.
- experimental system: T1, human prolactin receptor (PRLR) (human, UniProt P16471 25-622)
- T1 sequence: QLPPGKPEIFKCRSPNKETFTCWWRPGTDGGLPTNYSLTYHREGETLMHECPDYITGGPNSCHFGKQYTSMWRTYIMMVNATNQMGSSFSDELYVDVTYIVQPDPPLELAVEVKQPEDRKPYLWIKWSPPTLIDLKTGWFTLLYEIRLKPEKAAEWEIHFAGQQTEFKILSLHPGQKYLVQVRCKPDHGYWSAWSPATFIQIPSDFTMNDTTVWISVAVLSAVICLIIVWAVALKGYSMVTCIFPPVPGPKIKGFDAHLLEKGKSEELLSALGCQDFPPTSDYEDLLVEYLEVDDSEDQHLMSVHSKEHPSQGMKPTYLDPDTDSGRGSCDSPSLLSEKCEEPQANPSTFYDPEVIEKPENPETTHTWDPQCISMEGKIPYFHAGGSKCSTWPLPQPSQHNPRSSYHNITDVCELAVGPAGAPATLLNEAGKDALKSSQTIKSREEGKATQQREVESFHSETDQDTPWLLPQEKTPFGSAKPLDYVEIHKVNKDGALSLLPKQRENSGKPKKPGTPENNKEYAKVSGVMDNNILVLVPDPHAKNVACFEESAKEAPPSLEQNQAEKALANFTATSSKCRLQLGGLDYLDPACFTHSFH
- assay summary: cell-based or functional assay
assay readout: IC50, cell viability, MCF7/PRLR cells

| binder | meas value |
| --- | --- |
| H1H6958N2-mc-VC-PAB-MMAE (antibody, human IgG1, V domains shown, MMAE conjugated through cleavable mc-vc-PAB linker; attachment residues not stated) VH: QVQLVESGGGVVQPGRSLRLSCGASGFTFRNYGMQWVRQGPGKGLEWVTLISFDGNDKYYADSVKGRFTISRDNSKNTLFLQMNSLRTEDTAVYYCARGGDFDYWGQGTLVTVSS VL: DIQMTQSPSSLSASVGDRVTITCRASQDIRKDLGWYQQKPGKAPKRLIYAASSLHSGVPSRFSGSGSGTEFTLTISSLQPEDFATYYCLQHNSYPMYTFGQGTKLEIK | 0.2 nM |
| H1H6975P-mc-VC-PAB-MMD (antibody, human IgG1, V domains shown, MMD conjugated through mc-VC-PAB linker; attachment residues not stated) VH: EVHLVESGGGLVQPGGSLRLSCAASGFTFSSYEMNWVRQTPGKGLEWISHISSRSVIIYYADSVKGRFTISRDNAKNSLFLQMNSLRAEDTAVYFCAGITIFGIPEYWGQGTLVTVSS VL: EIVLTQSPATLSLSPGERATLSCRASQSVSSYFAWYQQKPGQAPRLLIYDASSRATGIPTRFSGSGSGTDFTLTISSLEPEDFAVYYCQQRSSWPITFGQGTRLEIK | 0.2 nM |
| H1H6782P-mc-VC-PAB-MeNHC3-May (antibody, human IgG1, V domains shown, MeNHC3-May conjugated through mc-VC-PAB linker; attachment residues not stated) VH: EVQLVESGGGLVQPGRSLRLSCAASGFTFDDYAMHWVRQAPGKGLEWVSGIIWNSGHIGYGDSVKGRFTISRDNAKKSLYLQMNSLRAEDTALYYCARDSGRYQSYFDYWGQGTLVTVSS VL: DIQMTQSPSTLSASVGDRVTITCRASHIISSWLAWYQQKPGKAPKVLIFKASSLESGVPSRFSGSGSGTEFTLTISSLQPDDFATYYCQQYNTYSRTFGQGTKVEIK | 0.2 nM |
| H1H6782P-DM1 (antibody, human IgG1, V domains shown, DM1 conjugated through SMCC linker; attachment residues not stated) VH: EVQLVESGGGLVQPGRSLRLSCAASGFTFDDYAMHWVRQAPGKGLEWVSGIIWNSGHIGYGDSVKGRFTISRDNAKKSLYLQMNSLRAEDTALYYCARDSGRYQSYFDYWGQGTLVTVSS VL: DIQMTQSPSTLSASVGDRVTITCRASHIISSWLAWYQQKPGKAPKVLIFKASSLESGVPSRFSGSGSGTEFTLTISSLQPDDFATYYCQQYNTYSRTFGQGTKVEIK | 0.3 nM |
| H1H6975N-DM1 (antibody, human IgG1, V domains shown, DM1 conjugated through SMCC linker; attachment residues not stated) VH: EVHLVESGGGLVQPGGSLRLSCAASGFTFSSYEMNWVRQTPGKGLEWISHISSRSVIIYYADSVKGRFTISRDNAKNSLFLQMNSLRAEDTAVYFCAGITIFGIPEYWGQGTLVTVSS VL: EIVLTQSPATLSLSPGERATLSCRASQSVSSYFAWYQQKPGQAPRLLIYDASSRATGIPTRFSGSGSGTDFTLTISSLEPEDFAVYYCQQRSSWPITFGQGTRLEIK | 0.2 nM |
